Target: human GPR119 (Homo sapiens)
Construct: expressed in transfected cells
Sequence (Q8TDV5 1-335): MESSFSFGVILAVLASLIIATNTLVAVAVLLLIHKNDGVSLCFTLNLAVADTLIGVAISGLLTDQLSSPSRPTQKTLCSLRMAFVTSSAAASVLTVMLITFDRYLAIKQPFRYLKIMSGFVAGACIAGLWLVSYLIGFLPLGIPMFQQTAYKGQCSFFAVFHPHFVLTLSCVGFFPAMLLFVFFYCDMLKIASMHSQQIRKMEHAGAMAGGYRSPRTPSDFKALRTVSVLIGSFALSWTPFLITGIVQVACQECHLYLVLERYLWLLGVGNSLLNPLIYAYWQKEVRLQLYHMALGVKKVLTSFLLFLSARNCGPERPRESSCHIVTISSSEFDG
Experiment: Human GPR119 agonist activity with increase of intracellular cAMP concentration as index (CRE-luciferase reporter assay in hGPR119/CRE-luc/CHO(dhfr-) cells)
Assay type: cell-based
Details: 1 μM test compound, 2 hr incubation; luciferase activity with 10 μM N-[4-(methylsulfonyl)phenyl]-5-nitro-6-{4-[4-(trifluoromethoxy)phenoxy]piperidin-1-yl}pyrimidin-4-amine = 100%, DMSO = 0%
valueType: GPR119 agonist activity (%) at 1 μM concentration
Reply numerically in %, unit not repeated.

Q: Could you share which GPR119 agonist activity (%) at 1 μM concentration value was measured for `CCc1cnc(N2CCC(N(c3cc(N4CCc5cc(S(C)(=O)=O)ccc54)ncn3)C(F)(F)F)CC2)nc1` ?
Ans: 98

---
Q: Query: GPR119 agonist activity (%) at 1 μM concentration; subject: CC(C)SC(=O)N1CCC(Oc2cc(N3CCc4cc(NC(=O)C5CCCO5)ccc43)ncn2)CC1 (stereo not shown)
Ans: 85

Q: Given the molecule `CC(C)(C)OC(=O)N1CCC(n2ccc3c(N4CCc5cc(S(C)(=O)=O)ccc54)ncnc32)CC1` , what is its reported GPR119 agonist activity (%) at 1 μM concentration?
Ans: 62

Q: Data request, read-out GPR119 agonist activity (%) at 1 μM concentration, for `COCCN(C)C(=O)c1ccc2c(c1)CCN2c1cc(OC2CCN(c3nc(C(C)C)no3)CC2)ncn1`
Ans: 80

Q: Request the reported GPR119 agonist activity (%) at 1 μM concentration associated with CC(C)(C)OC(=O)N1CCCC(n2ccc3c(N4CCc5cc(S(C)(=O)=O)ccc54)ncnc32)CC1 (stereo not shown)
Ans: 77

Q: # get_value(readout='GPR119 agonist activity (%) at 1 μM concentration', item= `CC(C)c1noc(N2CCC(Oc3cc(N4CCc5cc(C(=O)N(C)CCO)ccc54)ncn3)CC2)n1` )
Ans: 78

Q: What does the record list as GPR119 agonist activity (%) at 1 μM concentration for `CSC(=O)N1CCC(Oc2cc(N3CCc4cc(S(C)(=O)=O)ccc43)ncn2)CC1` ?
Ans: 85

====

Entries and their measured GPR119 agonist activity (%) at 1 μM concentration follow.
Biological target: human GPR119 (Homo sapiens)
Construct: expressed in transfected cells
Sequence (Q8TDV5 1-335): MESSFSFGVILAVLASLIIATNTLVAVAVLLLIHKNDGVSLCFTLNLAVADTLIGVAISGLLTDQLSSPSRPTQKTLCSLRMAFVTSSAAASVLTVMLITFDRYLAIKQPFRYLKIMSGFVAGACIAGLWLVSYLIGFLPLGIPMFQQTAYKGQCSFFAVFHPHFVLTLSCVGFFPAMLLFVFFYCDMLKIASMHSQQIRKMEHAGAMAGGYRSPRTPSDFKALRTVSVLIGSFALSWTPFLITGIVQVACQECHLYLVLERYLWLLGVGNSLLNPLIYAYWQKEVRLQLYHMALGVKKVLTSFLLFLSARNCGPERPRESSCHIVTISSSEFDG
Assay: Human GPR119 agonist activity with increase of intracellular cAMP concentration as index (CRE-luciferase reporter assay in hGPR119/CRE-luc/CHO(dhfr-) cells)
Type: cell-based
Conditions: 1 μM test compound, 2 hr incubation; luciferase activity with 10 μM N-[4-(methylsulfonyl)phenyl]-5-nitro-6-{4-[4-(trifluoromethoxy)phenoxy]piperidin-1-yl}pyrimidin-4-amine = 100%, DMSO = 0%
Only the number, expressed in %, is required.

Q: Which GPR119 agonist activity (%) at 1 μM concentration is listed for `CC(C)c1noc(N2CCC(N(c3cc(N4CCc5cc(S(C)(=O)=O)ccc54)ncn3)C(F)(F)F)CC2)n1` ?
Ans: 92

Q: Value lookup for GPR119 agonist activity (%) at 1 μM concentration; key = `CC(C)OC(=O)N1CCC(N(c2cc(N3CCc4cc(S(C)(=O)=O)ccc43)ncn2)C(F)(F)F)CC1`
Ans: 83

Q: Which measured GPR119 agonist activity (%) at 1 μM concentration value corresponds to `COCC(=O)Nc1ccc2c(c1)CCN2c1cc(OC2CCN(C(=O)SC(C)C)CC2)ncn1` ?
Ans: 81

New cases:
Q: # lookup: GPR119 agonist activity (%) at 1 μM concentration of `Cc1cnc(N2CCC(N(c3cc(N4CCc5cc(S(C)(=O)=O)ccc54)ncn3)C(F)(F)F)CC2)nc1`
Ans: 88

Q: Requested read-out: GPR119 agonist activity (%) at 1 μM concentration. Entry: CCc1cnc(N2CCC(Oc3cc(N4CCc5cc(C(=O)NC(C)CO)ccc54)ncn3)CC2)nc1 (stereo not drawn)
Ans: 79

Q: Looking for the measured GPR119 agonist activity (%) at 1 μM concentration of CC(C)(C)OC(=O)N1CCC(Cn2ccc3c(N4CCc5cc(S(C)(=O)=O)ccc54)ncnc32)C1 (stereo in doubt) , can you help?
Ans: 84
